# Target System: Gal(b1-4)GlcNAc(b1-3)Gal(b1-4)GlcNAc(b1-6)[Gal(b1-3)]GalNAc
# Method: glycan array binding signal (z-score within array); higher = stronger binding
# Assay Conditions: glycan notation: IUPAC condensed, linker removed
About 410 targets per protein were measured; listed, in parts, are those with the strongest signals and a random draw of the rest.
Property Measured: glycan array binding signal (z-score)
// response body must contain only the number

Some binders with known glycan array binding signal (z-score) results, for comparison:
| Binder | glycan array binding signal (z-score) |
| --- | --- |
| SfaEH (Escherichia coli), Q1RDG5 (protein) LLCRNNQTGQVFNSGDTSFRVNVSPVVQYDKSISVLDLSQLVSCQNEDSTGQNYDYLKILKGSGFSPALDTKTYGRLDFTSRPTGYARQLPLQFDLQVTEAFYQYGVWKPFPAKLYLYPAPGVFGKVINNGDLLATLYVNKFSTKGQEAGERNFTWRFYATNDVYIQTGTCRVSSNNVKVDLPSYPGGPVTVPLTVRCDQTQSVSYTLSGPVTGSGNTVFANTAASGSGGVGIQLSDNVGPVPAGQPRSLGQVGSSPVSLGLKASYALTGQASPTPGAVQSVINVTFSYN | -0.15 |
| Mg3lysM (Mycosphaerella graminicola) (protein) APQNPPTSCSAAPQPTGTGSPGTVCGSTTFTNYTVKAGDTLGAIAKQYNSGVCDIAKVNGIDNPDYIKPDQVLSIPANCVTPDNTSCVKPVPVITNTCVLGVGSTYTVKSGDSFSAIATSFNITLASLEARNPQIPNYDLIFPGQVINTPLCPNSVCDSIGTYVIESGDIFYNLAQSNNVTVGQLESLNVNVNVTDIHPGDIIILPHNCHNITASA | -0.078 |
| Epa21 (Candida glabrata) (protein) MGSSHHHHHHSSGLVPRGSHMASTPNIESHPQGCSPVDTSGIKPGLKMDLYRFPITPPGTGCWSWDWLTVTPDFPRSGYWKWPKIAEVDGVVGPLHLDSGHPTCDPLTSVLPHGFNYLQSITTTNFTMVLHGYFVPKQSGKYTFEFKADDALLLNLGAGNAFSCCDYNNSQYNQGEYLAYAIWSKNNQTATLYLEKGIYYPIRVFYHNRCCGAYMDVVYYFNDSPIPNRDFSGLLFSIPDSDSCDANI | 2.73 |

INPUT: Requested read-out: glycan array binding signal (z-score). Entry: Epa11 (Candida glabrata) (protein) MGSSHHHHHHSSGLVPRGSHMASSNAPNYPVGCSPSVGTQLTPGLSLEVYAYPMDGNNGYCWNATYKDPEFPRSGYLKNKLLGKADGVVGPLNFLAKNKDCSPKVDTLPAGFNFPQPITVTNFTMVLFGYLAPKQSGKYTFKLLADDLLLLNLGATNAFDCCNREATKNNLGEFLAYNLWPNQDKNVTVYLEKGVYYPLRLFFNNRDGGSQLDFSYYFNDSPAPLTDFSGMFFSVPDGAECPARI
OUTPUT: 1.77
